Known koff of a selection of binders
Target: T1, cyno FcRn/b2M (cyno, UniProt Q8SPV9 24-297; Q8SPW0 21-119, biotinylated)
T1 construct: bought recombinant biotinylated protein (Immunitrack ITF05 or ACRO FCM-C82W5); also called cFcRn; cFcRn/cb2M
T1 sequence (Q8SPV9 24-297 limits assumed, chain 1 of 2): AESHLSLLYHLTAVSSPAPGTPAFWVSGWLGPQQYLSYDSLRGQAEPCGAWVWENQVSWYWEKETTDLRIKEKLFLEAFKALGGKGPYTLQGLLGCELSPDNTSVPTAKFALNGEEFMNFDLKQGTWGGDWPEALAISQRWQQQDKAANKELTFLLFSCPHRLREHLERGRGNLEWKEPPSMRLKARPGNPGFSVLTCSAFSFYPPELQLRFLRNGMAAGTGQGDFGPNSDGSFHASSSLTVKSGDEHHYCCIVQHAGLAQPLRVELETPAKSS
T1 sequence (Q8SPW0 21-119 limits assumed, chain 2 of 2): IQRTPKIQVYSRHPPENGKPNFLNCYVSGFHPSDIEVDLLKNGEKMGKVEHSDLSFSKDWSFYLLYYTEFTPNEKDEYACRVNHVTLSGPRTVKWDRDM
Test: SPR pH 6.0;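 also: surface plasmon resonance kinetics at 25 °C, diluted periplasmic extracts injected over immobilized ligand surfaces, 120 s association then 600–3600 s dissociation, running buffer containing 150 mM NaCl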

| binder | unit | koff |
| --- | --- | --- |
| T0263018B11 T57Y (VHH, name in Kabat numbering, FLAG3-His6 tagged) VHH: EVQLVESGGGVVQPGGSLRLSCAASGFTFSSYAMYWVRQAPGKGLEWVSAISSGGGSYDYADSVKGRFTISRDNSKNTLYLQMNSLRPEDTALYYCAADTLYTSLTWYSYWGQGTLVTVSS | s⁻¹ | 0.00084 |
| T0263018B11 T57G (VHH, name in Kabat numbering, FLAG3-His6 tagged) VHH: EVQLVESGGGVVQPGGSLRLSCAASGFTFSSYAMYWVRQAPGKGLEWVSAISSGGGSGDYADSVKGRFTISRDNSKNTLYLQMNSLRPEDTALYYCAADTLYTSLTWYSYWGQGTLVTVSS | s⁻¹ | 0.0011 |
| T0263018B11 T57E (VHH, name in Kabat numbering, FLAG3-His6 tagged) VHH: EVQLVESGGGVVQPGGSLRLSCAASGFTFSSYAMYWVRQAPGKGLEWVSAISSGGGSEDYADSVKGRFTISRDNSKNTLYLQMNSLRPEDTALYYCAADTLYTSLTWYSYWGQGTLVTVSS | s⁻¹ | 0.00055 |
| T0263018B11 F29G (VHH, name in Kabat numbering, FLAG3-His6 tagged) VHH: EVQLVESGGGVVQPGGSLRLSCAASGFTGSSYAMYWVRQAPGKGLEWVSAISSGGGSTDYADSVKGRFTISRDNSKNTLYLQMNSLRPEDTALYYCAADTLYTSLTWYSYWGQGTLVTVSS | s⁻¹ | 0.0025 |
| T0263018B11 S56K (VHH, name in Kabat numbering, FLAG3-His6 tagged) VHH: EVQLVESGGGVVQPGGSLRLSCAASGFTFSSYAMYWVRQAPGKGLEWVSAISSGGGKTDYADSVKGRFTISRDNSKNTLYLQMNSLRPEDTALYYCAADTLYTSLTWYSYWGQGTLVTVSS | s⁻¹ | 0.0018 |
| T0263018B11 Y32T (VHH, name in Kabat numbering, FLAG3-His6 tagged) VHH: EVQLVESGGGVVQPGGSLRLSCAASGFTFSSTAMYWVRQAPGKGLEWVSAISSGGGSTDYADSVKGRFTISRDNSKNTLYLQMNSLRPEDTALYYCAADTLYTSLTWYSYWGQGTLVTVSS | s⁻¹ | 0.0035 |
| T0263018B11 G26H (VHH, name in Kabat numbering, FLAG3-His6 tagged) VHH: EVQLVESGGGVVQPGGSLRLSCAASHFTFSSYAMYWVRQAPGKGLEWVSAISSGGGSTDYADSVKGRFTISRDNSKNTLYLQMNSLRPEDTALYYCAADTLYTSLTWYSYWGQGTLVTVSS | s⁻¹ | 0.00016 |
| T0263018B11 G54E (VHH, name in Kabat numbering, FLAG3-His6 tagged) VHH: EVQLVESGGGVVQPGGSLRLSCAASGFTFSSYAMYWVRQAPGKGLEWVSAISSGEGSTDYADSVKGRFTISRDNSKNTLYLQMNSLRPEDTALYYCAADTLYTSLTWYSYWGQGTLVTVSS | s⁻¹ | 0.0016 |
| T0263018B11 D58E (VHH, name in Kabat numbering, FLAG3-His6 tagged) VHH: EVQLVESGGGVVQPGGSLRLSCAASGFTFSSYAMYWVRQAPGKGLEWVSAISSGGGSTEYADSVKGRFTISRDNSKNTLYLQMNSLRPEDTALYYCAADTLYTSLTWYSYWGQGTLVTVSS | s⁻¹ | 0.0012 |
| T0263018B11 A33S (VHH, name in Kabat numbering, FLAG3-His6 tagged) VHH: EVQLVESGGGVVQPGGSLRLSCAASGFTFSSYSMYWVRQAPGKGLEWVSAISSGGGSTDYADSVKGRFTISRDNSKNTLYLQMNSLRPEDTALYYCAADTLYTSLTWYSYWGQGTLVTVSS | s⁻¹ | 0.0013 |
| T0263018B11 A33H (VHH, name in Kabat numbering, FLAG3-His6 tagged) VHH: EVQLVESGGGVVQPGGSLRLSCAASGFTFSSYHMYWVRQAPGKGLEWVSAISSGGGSTDYADSVKGRFTISRDNSKNTLYLQMNSLRPEDTALYYCAADTLYTSLTWYSYWGQGTLVTVSS | s⁻¹ | 0.00077 |
| T0263018B11 T28G (VHH, name in Kabat numbering, FLAG3-His6 tagged) VHH: EVQLVESGGGVVQPGGSLRLSCAASGFGFSSYAMYWVRQAPGKGLEWVSAISSGGGSTDYADSVKGRFTISRDNSKNTLYLQMNSLRPEDTALYYCAADTLYTSLTWYSYWGQGTLVTVSS | s⁻¹ | 0.0002 |
| T0263018B11 T57L (VHH, name in Kabat numbering, FLAG3-His6 tagged) VHH: EVQLVESGGGVVQPGGSLRLSCAASGFTFSSYAMYWVRQAPGKGLEWVSAISSGGGSLDYADSVKGRFTISRDNSKNTLYLQMNSLRPEDTALYYCAADTLYTSLTWYSYWGQGTLVTVSS | s⁻¹ | 0.0009 |
| T0263018B11 T57F (VHH, name in Kabat numbering, FLAG3-His6 tagged) VHH: EVQLVESGGGVVQPGGSLRLSCAASGFTFSSYAMYWVRQAPGKGLEWVSAISSGGGSFDYADSVKGRFTISRDNSKNTLYLQMNSLRPEDTALYYCAADTLYTSLTWYSYWGQGTLVTVSS | s⁻¹ | 0.00084 |
| T0263018B11 Y102T (VHH, name in Kabat numbering, FLAG3-His6 tagged) VHH: EVQLVESGGGVVQPGGSLRLSCAASGFTFSSYAMYWVRQAPGKGLEWVSAISSGGGSTDYADSVKGRFTISRDNSKNTLYLQMNSLRPEDTALYYCAADTLYTSLTWYSTWGQGTLVTVSS | s⁻¹ | 0.0012 |

All values here come from patent US20240132624A1.
